Value source: ChEMBL document CHEMBL1132007

Species: Rattus norvegicus
Details: in vivo, po
measurementName: AUC (ng·h/mL)
# value in ng·h/mL; strip the unit string

Input: Please report the recorded AUC for CN(C[C@H](C(=O)NO)[C@@H](CC1CCCC1)C(=O)N1CCCCC1)S(C)(=O)=O .
Output: 662

----------
Experiment: in vivo
Conditions: rat, po
measurementName: Cmax at 0.5 h (ng/mL)
Reply with just the number (in ng/mL).

Input: Data request, read-out Cmax at 0.5 h, for CN(C[C@H](C(=O)NO)[C@@H](CC1CCCC1)C(=O)N1CCCCC1)S(C)(=O)=O
Output: 172
